# test_target: IDO (Homo sapiens)
# Sequence (P14902 whole entry): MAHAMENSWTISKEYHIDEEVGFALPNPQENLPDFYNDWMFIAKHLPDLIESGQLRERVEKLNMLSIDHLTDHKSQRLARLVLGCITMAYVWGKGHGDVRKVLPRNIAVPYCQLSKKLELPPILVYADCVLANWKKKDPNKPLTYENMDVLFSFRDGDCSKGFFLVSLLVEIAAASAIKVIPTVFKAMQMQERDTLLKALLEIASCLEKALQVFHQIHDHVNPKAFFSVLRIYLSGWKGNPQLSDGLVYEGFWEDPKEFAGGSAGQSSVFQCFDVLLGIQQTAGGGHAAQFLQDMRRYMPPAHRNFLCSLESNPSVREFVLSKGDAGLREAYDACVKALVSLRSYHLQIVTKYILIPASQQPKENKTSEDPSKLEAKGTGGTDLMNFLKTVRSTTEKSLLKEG
# method_summary: hIDO biochemical coupled assay
# condition_notes: 45 μM L-tryptophan, 17 minutes, room temperature; read-out: hIDO biochemical assay pIC50 (converted)
parameter_measured: IC50

Input line: Can you look up the measured IC50 of CC(=O)N(C)CC1CCCN(c2cc(Cl)cc3[nH]ncc23)C1 (centres unmarked) for me?
Output line: > 100 µM

Input line: Can you look up the measured IC50 of CC(=O)Nc1ccc2c(c1)CCN(c1cc(Cl)cc3[nH]ncc13)C2 for me?
Output line: > 100 µM

Input line: Can you look up the measured IC50 of CC1(C)CN(c2cc(C#N)cc3[nH]ncc23)CCN1S(C)(=O)=O for me?
Output line: < 3.16 µM

Input line: Can you look up the measured IC50 of CC(=O)NCCN1CCN(c2cc(Cl)cc3[nH]ncc23)CC1 for me?
Output line: > 100 µM

Input line: Can you look up the measured IC50 of Cc1nc2c([nH]1)CN(c1cc(Cl)cc3[nH]ncc13)CC2 for me?
Output line: 32.4 to 100 µM
